# MEASURED_ON: human glucagon receptor (GCGR) (human, UniProt P47871 26-477)
# Sequence (P47871 26-477): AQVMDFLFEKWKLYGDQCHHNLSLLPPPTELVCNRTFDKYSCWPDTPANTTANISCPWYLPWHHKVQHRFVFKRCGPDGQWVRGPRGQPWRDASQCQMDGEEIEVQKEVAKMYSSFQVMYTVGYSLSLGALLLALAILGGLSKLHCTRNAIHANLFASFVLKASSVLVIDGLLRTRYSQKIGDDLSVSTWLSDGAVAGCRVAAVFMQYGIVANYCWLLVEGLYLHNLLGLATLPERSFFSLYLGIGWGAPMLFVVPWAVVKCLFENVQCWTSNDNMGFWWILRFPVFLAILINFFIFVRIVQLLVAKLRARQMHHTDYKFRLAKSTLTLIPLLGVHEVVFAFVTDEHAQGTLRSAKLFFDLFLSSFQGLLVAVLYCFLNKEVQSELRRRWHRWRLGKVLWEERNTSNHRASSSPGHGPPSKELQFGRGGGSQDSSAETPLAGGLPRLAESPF
# ASSAY_DETAILS: cell-based or functional assay
Bridges are numbered along the chain shown (N, C = ends). Primed or numbered codes have the meaning given here. Where no end group is shown, it is not given here. [ ]: non-standard residue; d: D form. L1″ = C4 bis(bromoacetamide) staple without lipid, joins two Cys through thioethers; L1 = C4 bis(bromoacetamide) staple without lipid; L4 = octadecanedioic acid-PEG-ornithine staple; L6 = made as L5 but on Rink amide resin
EC50, CRE-luciferase reporter in HEK293-GCGR-CRE cells by entry:
RESULT_TYPE: EC50, CRE-luciferase reporter in HEK293-GCGR-CRE cells (nM)

- BINDER: "H[dS]QGTFTSDYSKYLDECAAKEFICWLLRA (linker 17-24 via L4) [mTA 31: GLP-1/Glucagon (B) and L4]"
  RECORDED_VALUE: 0.12
- BINDER: "H[dS]QGTFTSDYSKYLDECAAKEFICWLMNTKRNRNNIA (linker 17-24 via L1″) [mTA 15: OXM (B) and L1]"
  RECORDED_VALUE: 0.2
- BINDER: "H[dS]QGTFTSDYSKYLDSCAAHDFVCWLLRA (linker 17-24 via L1) [mTA 27: GLP-1/Glucagon (A) and L1]"
  RECORDED_VALUE: 0.04
- BINDER: "H[dS]QGTFTSDYSKYLDECAAKEFICWLLNGGPSSGAPPPS (linker 17-24 via L6) [mTA 39: GLP-1/Glucagon (D) and L6]"
  RECORDED_VALUE: 0.3
